Provide the recorded Potency for the entries that follow.
Test system: Mus musculus
method-notes: Topical Antiinflammatory activity was measured in the TPA induced mouse ear edema assay at 100 ug/mouse.
Format: functional
Give your result as the value with the unit written after it.

QUERY: Consider the compound CCC(=O)OCC(=O)[C@@]1(OC(=O)CC)[C@@H](C)C[C@H]2C3CCC4=CC(=O)C=C[C@]4(C)[C@@]3(Cl)[C@@H](O)[C@@H](OC(=O)CC)[C@@]21C (stereo partly specified) and give its measured Potency.
RESULT: 53%

QUERY: Consider the compound CCC(=O)OCC(=O)[C@@]1(OC(=O)CC)[C@@H](C)C[C@H]2C3CCC4=CC(=O)C=C[C@]4(C)[C@@]3(Br)[C@@H](O)[C@@H](OC(=O)CC)[C@@]21C (stereo partly specified) and give its measured Potency.
RESULT: 45%

QUERY: Consider the compound CCC(=O)OCC(=O)[C@@]1(OC(=O)CC)[C@@H](C)C[C@H]2C3CCC4=CC(=O)C=C[C@]4(C)[C@@]3(Cl)[C@@H](O)[C@@H](O)[C@@]21C (stereo partly specified) and give its measured Potency.
RESULT: 81%

QUERY: Consider the compound CCC(=O)OCC(=O)[C@@]1(OC(=O)CC)[C@@H](C)C[C@H]2C3CCC4=CC(=O)C=C[C@]4(C)[C@@]3(F)[C@@H](O)[C@@H](OC(=O)CC)[C@@]21C (stereo partly specified) and give its measured Potency.
RESULT: 69%

QUERY: Consider the compound CCC(=O)OCC(=O)[C@@]1(OC(=O)CC)[C@@H](C)C[C@H]2C3CCC4=CC(=O)C=C[C@]4(C)[C@@]3(F)[C@@H](O)[C@@H](O)[C@@]21C (stereo partly specified) and give its measured Potency.
RESULT: 82%

QUERY: Consider the compound CCC(=O)OCC(=O)[C@@]1(OC(=O)CC)[C@@H](C)C[C@H]2C3CCC4=CC(=O)C=C[C@]4(C)[C@@]3(Br)[C@@H](O)[C@@H](O)[C@@]21C (stereo partly specified) and give its measured Potency.
RESULT: 86%

###

Provide the recorded Potency for the entries that follow.
System: Mus musculus
method-notes: Topical Antiinflammatory activity was measured in the TPA induced mouse ear edema assay at 200 ug/mouse.
Format: functional
Give your result as the value with the unit written after it.

QUERY: Consider the compound CCC(=O)OCC(=O)[C@@]1(OC(=O)CC)[C@@H](C)C[C@H]2C3CCC4=CC(=O)C=C[C@]4(C)[C@@]3(F)[C@@H](O)[C@@H](OC(=O)CC)[C@@]21C (some centres undefined) and give its measured Potency.
RESULT: 77%

QUERY: Consider the compound CCC(=O)OCC(=O)[C@@]1(OC(=O)CC)[C@@H](C)C[C@H]2C3CCC4=CC(=O)C=C[C@]4(C)[C@@]3(Cl)[C@@H](O)[C@@H](OC(=O)CC)[C@@]21C (some centres undefined) and give its measured Potency.
RESULT: 71%

QUERY: Consider the compound CCC(=O)OCC(=O)[C@@]1(OC(=O)CC)[C@@H](C)C[C@H]2C3CCC4=CC(=O)C=C[C@]4(C)[C@@]3(Br)[C@@H](O)[C@@H](OC(=O)CC)[C@@]21C (some centres undefined) and give its measured Potency.
RESULT: 70%

QUERY: Consider the compound CCC(=O)OCC(=O)[C@@]1(OC(=O)CC)[C@@H](C)C[C@H]2C3CCC4=CC(=O)C=C[C@]4(C)[C@@]3(Br)[C@@H](O)[C@@H](O)[C@@]21C (some centres undefined) and give its measured Potency.
RESULT: 91%

###

Provide the recorded Potency for the entries that follow.
Tested on: Mus musculus
method-notes: Systemic Antiinflammatory activity was measured in the TPA induced mouse ear edema assay at 200 ug/mouse.
Type: functional
Note: unit % is implicit; provide only the numeric part.

QUERY: Tell me reported Potency for CCC(=O)OCC(=O)[C@@]1(OC(=O)CC)[C@@H](C)C[C@H]2C3CCC4=CC(=O)C=C[C@]4(C)[C@@]3(Cl)[C@@H](O)[C@@H](OC(=O)CC)[C@@]21C (some centres undefined) , tested with Mus musculus.
RESULT: 0

QUERY: Tell me reported Potency for CCC(=O)OCC(=O)[C@@]1(OC(=O)CC)[C@@H](C)C[C@H]2C3CCC4=CC(=O)C=C[C@]4(C)[C@@]3(F)[C@@H](O)[C@@H](OC(=O)CC)[C@@]21C (some centres undefined) , tested with Mus musculus.
RESULT: 0

QUERY: Tell me reported Potency for CCC(=O)OCC(=O)[C@@]1(OC(=O)CC)[C@@H](C)C[C@H]2C3CCC4=CC(=O)C=C[C@]4(C)[C@@]3(Br)[C@@H](O)[C@@H](OC(=O)CC)[C@@]21C (some centres undefined) , tested with Mus musculus.
RESULT: 0

QUERY: Tell me reported Potency for CCC(=O)OCC(=O)[C@@]1(OC(=O)CC)[C@@H](C)C[C@H]2C3CCC4=CC(=O)C=C[C@]4(C)[C@@]3(Br)[C@@H](O)[C@@H](O)[C@@]21C (some centres undefined) , tested with Mus musculus.
RESULT: 17

###

Test system: Mus musculus
method-notes: Topical Antiinflammatory activity was measured in the TPA induced mouse ear edema assay at 300 ugm/mouse.
Type: functional
Provide the recorded Potency for the entries that follow.
Note: unit % is implicit; provide only the numeric part.

QUERY: Consider the molecule CCC(=O)OCC(=O)[C@@]1(OC(=O)CC)[C@@H](C)C[C@H]2C3CCC4=CC(=O)C=C[C@]4(C)[C@@]3(Br)[C@@H](O)[C@@H](OC(=O)c3ccco3)[C@@]21C (some centres not stated) and give its measured Potency.
RESULT: 69

QUERY: Consider the molecule CCCC(=O)O[C@@H]1[C@H](O)[C@@]2(Br)C(CCC3=CC(=O)C=C[C@@]32C)[C@@H]2C[C@H](C)[C@](OC(=O)CC)(C(=O)COC(=O)CC)[C@@]12C (some centres not stated) and give its measured Potency.
RESULT: 68

QUERY: Consider the molecule CCC(=O)OCC(=O)[C@@]1(OC(=O)CC)[C@@H](C)C[C@H]2C3CCC4=CC(=O)C=C[C@]4(C)[C@@]3(Br)[C@@H](O)[C@@H](OC(=O)CC(C)C)[C@@]21C (some centres not stated) and give its measured Potency.
RESULT: 54

QUERY: Consider the molecule CCC(=O)OCC(=O)[C@@]1(OC(=O)CC)[C@@H](C)C[C@H]2C3CCC4=CC(=O)C=C[C@]4(C)[C@@]3(Br)[C@@H](O)[C@@H](OC(=O)c3ccccc3)[C@@]21C (some centres not stated) and give its measured Potency.
RESULT: 84

QUERY: Consider the molecule CCC(=O)OCC(=O)[C@@]1(OC(=O)CC)[C@@H](C)C[C@H]2C3CCC4=CC(=O)C=C[C@]4(C)[C@@]3(Br)[C@@H](O)[C@@H](OC(=O)CC)[C@@]21C (some centres not stated) and give its measured Potency.
RESULT: 96

QUERY: Consider the molecule CCC(=O)OCC(=O)[C@@]1(OC(=O)CC)[C@@H](C)C[C@H]2C3CCC4=CC(=O)C=C[C@]4(C)[C@@]3(Br)[C@@H](O)[C@@H](O)[C@@]21C (some centres not stated) and give its measured Potency.
RESULT: 99

QUERY: Consider the molecule CCC(=O)OCC(=O)[C@@]1(OC(=O)CC)[C@@H](C)C[C@H]2C3CCC4=CC(=O)C=C[C@]4(C)[C@@]3(Cl)[C@@H](O)[C@@H](OC(=O)CC)[C@@]21C (some centres not stated) and give its measured Potency.
RESULT: 84

The values you see were collected from ChEMBL document CHEMBL1124813.
